Reported TGI values for the following compounds.
System: 786-0 renal
Assay: NCI tumour cell line growth inhibition, 48 h
MEASURE NAME: TGI (µM)

{"columns": ["COMPOUND", "SYSTEM NAME", "SIGN", "RECORDED NUMBER"],
 "data": [
  ["NNC(=S)N/N=C/C(Cl)=C(\\Cl)C(=O)O", "786-0 renal", ">", 100],
  ["OC1C2C=CCC1CCC2 (configuration not stated)", "786-0 renal", ">", 100],
  ["O=C1CCC(=O)C(C(=O)CCC(=O)Nc2cccc(Cl)c2)C1 (configuration not stated)", "786-0 renal", ">", 100],
  ["Brc1ccc(Br)nn1", "786-0 renal", "=", 4.75],
  ["CC(=O)N[C@@H](Cc1ccc(OP(=O)(O)O)cc1)C(=O)N[C@H]1CCC(=O)N2CCC[C@@H](C(=O)NCc3ccc(O)cc3)N2C1=O", "786-0 renal", ">", 25],
  ["CCOC(=O)C1(Cc2ccc3ccccc3c2)CCCCCN1 (configuration not stated)", "786-0 renal", "=", 34.2],
  ["CCCc1ccc(OCC(=O)N/N=C/c2c(-c3ccccc3)[nH]c3ccccc23)cc1", "786-0 renal", "=", 35.7]
]}

###

Test system: BT-549 breast
Assay: NCI tumour cell line growth inhibition, 48 h
Reported TGI values for the following compounds.

{"columns": ["COMPOUND", "TGI"],
 "data": [
  ["Nc1cnc2c(c1)c(=O)nc1n2CCS1", "> 100 µM"],
  ["CCN1C(=O)N(CC)C2C1NN=c1s/c(=C\\c3ccccc3)c(=O)n12 (stereo not given)", "> 100 µM"],
  ["O=P1(O)c2ccccc2CS(=O)(=O)Cc2ccccc21", "> 100 µM"],
  ["COc1cc(/C=C/C(=O)c2ccc(Nc3nc(Nc4ccccc4)nc(Nc4ccc(Cl)cc4)n3)cc2)cc(OC)c1OC", "> 32.5 µM"],
  ["COc1ccc(C2C3=C(COC3=O)N(CCO)c3cc4c(cc32)OCCO4)cc1OC (stereo not given)", "> 47.9 µM"]
]}

###

Tested on: M14 melanoma
Test: NCI tumour cell line growth inhibition, 48 h

{"columns": ["COMPOUND", "SYSTEM NAME", "TGI"],
 "data": [
  ["CCOC(=O)c1cn2c([nH]c3ccccc32)c(C#N)c1=O", "M14 melanoma", "> 100 µM"],
  ["CN(C)/C=N/S(=O)(=O)c1nn2c(C=O)c(-c3ccc([N+](=O)[O-])cc3)nc2s1", "M14 melanoma", "> 32.4 µM"],
  ["Cc1cc(C)c2c(c1)C(=O)C1(C2)Cc2c(ccc(C)c2C)C1=O (stereo not drawn)", "M14 melanoma", "> 100 µM"],
  ["CO[C@]12C[C@H](CNC(=O)c3cc(Br)c(Br)[nH]3)O[C@H]1NC(=O)N2", "M14 melanoma", "> 100 µM"],
  ["CC(C)CNc1nc(N=[N+]=[N-])nc(NCC(C)C)n1", "M14 melanoma", "> 10 µM"],
  ["COc1cc(C2C(C#N)=C(N)Oc3cc4c(cc32)OCO4)cc2c1OCO2 (stereo not drawn)", "M14 melanoma", "> 100 µM"],
  ["O=C(N/C(=C/c1ccc(Cl)cc1)c1nc2ccccc2c(=O)n1Nc1ccc([N+](=O)[O-])cc1[N+](=O)[O-])c1ccccc1", "M14 melanoma", "> 100 µM"],
  ["CC(C)(C)C[P+](C)(C)c1ccccc1", "M14 melanoma", "> 100 µM"]
]}
